biological target: human FXR (NR1H4) (Homo sapiens); assay: Human FXR (NR1H4) agonist assessment, FXRE-NanoLuc reporter in HEK293T cells; type: cell-based; conditions: FXR activation, HEK293T FXRE-NanoLuc reporter, 24 hr
Sequence (Q96RI1 1-476 isoform Q96RI1-1): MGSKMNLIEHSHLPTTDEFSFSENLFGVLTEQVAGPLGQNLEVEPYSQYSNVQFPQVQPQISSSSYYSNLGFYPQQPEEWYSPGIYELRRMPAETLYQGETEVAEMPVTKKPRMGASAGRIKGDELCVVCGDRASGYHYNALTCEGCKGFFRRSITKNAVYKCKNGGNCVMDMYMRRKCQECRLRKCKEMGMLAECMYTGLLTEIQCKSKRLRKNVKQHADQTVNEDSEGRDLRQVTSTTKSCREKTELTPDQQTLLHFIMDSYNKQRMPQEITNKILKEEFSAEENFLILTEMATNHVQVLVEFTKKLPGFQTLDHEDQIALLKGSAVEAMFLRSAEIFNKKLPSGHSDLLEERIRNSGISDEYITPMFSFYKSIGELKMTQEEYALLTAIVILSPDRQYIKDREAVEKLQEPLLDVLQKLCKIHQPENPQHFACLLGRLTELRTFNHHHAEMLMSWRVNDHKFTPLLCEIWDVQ
Experimental readout: Efficacy (maximum measured induction of NanoLuc, normalized to CDCA set as 100%)

Compound	Measurement target	Result value
C[C@H](CCCCNC(=O)NS(=O)(=O)c1ccc(C(C)(C)CF)cc1)[C@H]1CC[C@H]2[C@@H]3CC[C@@H]4CCCC[C@]4(C)[C@H]3CC[C@]12C	human FXR (NR1H4) (Homo sapiens)	B (300%<efficacy <=400%)
CC(=O)CC[C@@H](C)[C@H]1CC[C@H]2[C@@H]3CC[C@@H]4CCCC[C@]4(C)[C@H]3CC[C@]12C	human FXR (NR1H4) (Homo sapiens)	C (100%<efficacy <=300%)
CC[C@H]1[C@@H](O)[C@@H]2[C@H](CC[C@]3(C)[C@@H]([C@H](C)CCC(=O)NS(=O)(=O)CC)CC[C@@H]23)[C@@]2(C)CCCC[C@@H]12	human FXR (NR1H4) (Homo sapiens)	B (300%<efficacy <=400%)
CC[C@H]1[C@@H](O)[C@@H]2[C@H](CC[C@]3(C)[C@@H]([C@H](C)CCNS(=O)(=O)C4CC4)CC[C@@H]23)[C@@]2(C)CCCC[C@@H]12	human FXR (NR1H4) (Homo sapiens)	C (100%<efficacy <=300%)
CC[C@H]1[C@@H](O)[C@@H]2[C@H](CC[C@]3(C)[C@@H]([C@H](C)CCNC(=O)NS(=O)(=O)c4ccc5c(c4)CCC(C)(C)O5)CC[C@@H]23)[C@@]2(C)CCCC[C@@H]12	human FXR (NR1H4) (Homo sapiens)	A (efficacy >400%)
CC[C@H]1[C@@H](O)[C@@H]2[C@H](CC[C@]3(C)[C@@H]([C@H](C)CCNC(=O)NS(=O)(=O)c4cc(F)cc(F)c4)CC[C@@H]23)[C@@]2(C)CC[C@H](F)C[C@@H]12	human FXR (NR1H4) (Homo sapiens)	B (300%<efficacy <=400%)
CC[C@H]1[C@@H](O)[C@@H]2[C@H](CC[C@]3(C)[C@@H]([C@H](C)CCO)CC[C@@H]23)[C@@]2(C)CCCC[C@@H]12	human FXR (NR1H4) (Homo sapiens)	A (efficacy >400%)
CC[C@H]1[C@@H](O)[C@@H]2[C@H](CC[C@]3(C)[C@@H]([C@H](C)COC(=O)NS(=O)(=O)c4ccc5c(c4)CCC(C)(C)O5)CC[C@@H]23)[C@@]2(C)CCCC[C@@H]12	human FXR (NR1H4) (Homo sapiens)	A (efficacy >400%)
CC[C@H]1[C@@H](O)[C@@H]2[C@H](CC[C@]3(C)[C@@H]([C@H](C)CCNC(=O)NS(=O)(=O)N4CC5CC5C4)CC[C@@H]23)[C@@]2(C)CCCC[C@@H]12 (stereo partly shown)	human FXR (NR1H4) (Homo sapiens)	C (100%<efficacy <=300%)
C[C@H](CCCCC(=O)O)[C@H]1CC[C@H]2[C@@H]3CC[C@@H]4C[C@H](O)CC[C@]4(C)[C@H]3CC[C@]12C	human FXR (NR1H4) (Homo sapiens)	B (300%<efficacy <=400%)
CO/N=C1\C[C@@H]2C[C@H](OC(C)=O)CC[C@]2(C)[C@H]2CC[C@]3(C)[C@@H]([C@H](C)CCC(=O)OC)CC[C@H]3[C@H]12	human FXR (NR1H4) (Homo sapiens)	D (efficacy <=100%)
CC[C@H]1[C@@H](O)[C@@H]2[C@H](CC[C@]3(C)[C@@H]([C@H](C)CCNC(=N)NS(=O)(=O)c4cccs4)CC[C@@H]23)[C@@]2(C)CCCC[C@@H]12	human FXR (NR1H4) (Homo sapiens)	B (300%<efficacy <=400%)
CC[C@H]1[C@@H](O)[C@@H]2[C@H](CC[C@]3(C)[C@@H]([C@H](C)CCN=C=S)CC[C@@H]23)[C@@]2(C)CCC(F)(F)C[C@@H]12	human FXR (NR1H4) (Homo sapiens)	D (efficacy <=100%)
C[C@H](CCC(=O)O)[C@H]1CC[C@H]2[C@@H]3CC[C@@H]4C[C@@H](O)CC[C@]4(C)[C@H]3C[C@@H](O)[C@]12C	human FXR (NR1H4) (Homo sapiens)	B (300%<efficacy <=400%)
C[C@H](CCC(=O)O)[C@H]1CC[C@H]2[C@@H]3CC[C@@H]4CC(=O)CC[C@]4(C)[C@H]3CC[C@]12C	human FXR (NR1H4) (Homo sapiens)	C (100%<efficacy <=300%)
CC[C@H]1[C@@H](O)[C@@H]2[C@H](CC[C@]3(C)[C@@H]([C@H](C)CCNC(=O)NS(=O)(=O)c4ccc(C(C)(CO)CO)cc4)CC[C@@H]23)[C@@]2(C)CCCC[C@@H]12	human FXR (NR1H4) (Homo sapiens)	C (100%<efficacy <=300%)
CC[C@H]1[C@@H](OC(=O)c2cccc(I)c2)[C@@H]2[C@H](CC[C@@]3(C)[C@H]2CC[C@]3(Cl)[C@H](C)CCC(=O)OC)[C@@]2(C)CCCC[C@@H]12	human FXR (NR1H4) (Homo sapiens)	D (efficacy <=100%)
C[C@H](CCCC(=O)O)[C@H]1CC[C@H]2[C@@H]3CC[C@@H]4C[C@H](O)CC[C@]4(C)[C@H]3C[C@H](O)[C@]12C	human FXR (NR1H4) (Homo sapiens)	B (300%<efficacy <=400%)
[2H]C1([2H])CC[C@@]2(C)[C@@H](C1)[C@@H](CC)[C@@H](O)[C@@H]1[C@@H]2CC[C@]2(C)[C@@H]([C@H](C)CCN=C=S)CC[C@@H]12	human FXR (NR1H4) (Homo sapiens)	C (100%<efficacy <=300%)
CC[C@H]1[C@@H](O)[C@@H]2[C@H](CC[C@]3(C)[C@@H]([C@H](C)CCNC(=O)NS(=O)(=O)c4ccc(C(C)(C)CF)cc4)CC[C@@H]23)[C@@]2(C)CC[C@H](F)C[C@@H]12	human FXR (NR1H4) (Homo sapiens)	B (300%<efficacy <=400%)
[2H]C1([2H])CC[C@@]2(C)[C@@H](C1)[C@@H](CC)[C@@H](O)[C@@H]1[C@@H]2CC[C@]2(C)[C@@H]([C@H](C)CCNC(=O)NS(=O)(=O)c3ccc(C(C)(C)CF)cc3)CC[C@@H]12	human FXR (NR1H4) (Homo sapiens)	A (efficacy >400%)
C[C@H](CC(=O)O)[C@H]1CC[C@H]2[C@@H]3CC[C@@H]4C[C@H](O)CC[C@]4(C)[C@H]3C[C@H](O)[C@]12C	human FXR (NR1H4) (Homo sapiens)	B (300%<efficacy <=400%)
